- Experimental target: LmjIPCS (inositol phosphorylceramide synthase from L. major) (Leishmania major, UniProt E9AFX2)
- Sequence (E9AFX2 whole entry): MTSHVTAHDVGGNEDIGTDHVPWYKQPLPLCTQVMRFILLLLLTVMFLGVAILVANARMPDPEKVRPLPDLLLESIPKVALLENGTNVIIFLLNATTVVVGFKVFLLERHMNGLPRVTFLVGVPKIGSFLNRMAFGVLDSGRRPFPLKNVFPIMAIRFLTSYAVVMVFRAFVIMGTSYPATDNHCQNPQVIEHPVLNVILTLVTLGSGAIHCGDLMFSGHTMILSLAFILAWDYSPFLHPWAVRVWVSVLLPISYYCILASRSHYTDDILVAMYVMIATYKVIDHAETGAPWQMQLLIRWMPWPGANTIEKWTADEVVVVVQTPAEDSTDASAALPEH
- Assay notes: biochemical
- Assay type: biochemical
Observable: 20mM inhibition LmjIPCS (%)
One number for each entry, in %.

Data request, read-out 20mM inhibition LmjIPCS, for `Nc1ncnc2c1ncn2[C@@H]1O[C@H](CO)[C@@H](O)[C@H]1O`
41

Return reported 20mM inhibition LmjIPCS values for all items listed beneath this line.
1. CCOC(=O)C1=C(C)NC(C)=C(C(=O)OC)C1c1cccc([N+](=O)[O-])c1 (stereo not drawn)
2. CNC(C)C(O)c1ccccc1 (stereo not drawn)

[39, 41]

Cited source: paper PMC7802075
